Task for the reader: assign each of the following molecules its reported Cell survival rate.
# System: A2780/Taxol
# measurement_protocol: Cytotoxicity against human A2780/Taxol cells assessed survival rate at 10 uM incubated for 48 hrs by MTT assay
# Assay type: functional
Answers are plain numbers, in %.

Some solved cases for reference:
- smiles_data: "Cc1c(Cc2ccccc2)c(=O)oc2c(COC(=O)/C=C/c3ccccc3)c(OC(C)C)ccc12"
  endpoint_unit: "%"
  Cell survival rate: 95
- smiles_data: "COc1cc(CC(=O)OCc2c(OC(C)C)ccc3c(C)c(Cc4cccc(F)c4)c(=O)oc23)cc(OC)c1OC"
  endpoint_unit: "%"
  Cell survival rate: 94
- smiles_data: "Cc1cc(=O)oc2c(CNC(=O)/C=C/c3ccccc3)c(OC(C)C)ccc12"
  endpoint_unit: "%"
  Cell survival rate: 87
- smiles_data: "Cc1c(Cc2ccc(C(F)(F)F)cc2)c(=O)oc2c(COC(=O)/C=C/c3ccccc3)c(OC(C)C)ccc12"
  endpoint_unit: "%"
  Cell survival rate: 99
- smiles_data: "COc1cc(CC(=O)OCc2c(OC(C)C)ccc3c(C)c(Cc4ccc(F)cc4)c(=O)oc23)cc(OC)c1OC"
  endpoint_unit: "%"
  Cell survival rate: 92
- smiles_data: "CCOc1ccc2c(C)c(Cc3ccccc3)c(=O)oc2c1COC(=O)/C=C/c1ccc(OC)cc1"
  endpoint_unit: "%"
  Cell survival rate: 74

State recorded Cell survival rate for all listed molecules.
1. CCOc1ccc2c(C)cc(=O)oc2c1CNC(=O)/C=C/c1ccc(OC)cc1
2. COc1cc(CC(=O)OCc2c(OC(C)C)ccc3c(C)c(Cc4ccccc4F)c(=O)oc23)cc(OC)c1OC

Reply:
1: 96; 2: 98
